System: normal primary NK cells, pool 2 (3 donors) (IL-2 2.5 ng/mL)
Experiment: percent inhibition of viability; higher = more inhibition;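 further: normalised to DMSO-only wells as negative and benzethonium chloride as positive control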
Details: 72 h; 1000 nM
Recorded measurements of percent inhibition of viability, one per entry
Numeric only. Scale: %

Use the examples below as a reference point.
INSERT INTO results (compound, recorded_endpoint, quantity_unit, assay_result) VALUES
  ('O=C(Nc1cccc(Nc2ncc(Br)c(NCCc3cnc[nH]3)n2)c1)N1CCCC1 [BX-912] (max concentration tested 10000 nM)', 'percent inhibition of viability', '%', 28.3),
  ('O=C(/C=C/c1cccc(S(=O)(=O)Nc2ccccc2)c1)NO [Belinostat] (max concentration tested 10000 nM)', 'percent inhibition of viability', '%', 93.9),
  ('O=C(Nc1ccc(-c2ccnc(Nc3ccc(N4CCOCC4)cc3)n2)cc1)C1CCCN1 (stereo unspecified) [XL019] (max concentration tested 10000 nM)', 'percent inhibition of viability', '%', 19.5),
  ('CCc1cncnc1N1CCN(Cc2nc3ccc(C(F)(F)F)cc3[nH]2)CC1 (max concentration tested 10000 nM)', 'percent inhibition of viability', '%', 8.67),
  ('FC(F)c1nc2ccccc2n1-c1nc(N2CCOCC2)nc(N2CCOCC2)n1 [ZSTK474] (max concentration tested 10000 nM)', 'percent inhibition of viability', '%', 20);

Okay, now this compound:
[in] For the compound CN1CCC(CNc2ccc3ncc(-c4cccc(OC(F)(F)F)c4)n3n2)CC1 [SGI-1776] (max concentration tested 10000 nM) , what percent inhibition of viability is on record?
[out] 23.6

---

Recorded measurements of percent inhibition of viability, one per entry
Test system: normal primary NK cells, pool 2 (3 donors) (IL-2 2.5 ng/mL)
Experiment: percent inhibition of viability; higher = more inhibition
Settings: 72 h; 1000 nM
Numeric only. Scale: %

INSERT INTO measurements (compound, quantity_unit, assay_result) VALUES
  ('COc1c(C)cnc(Cn2cnc3c(Cl)nc(N)nc32)c1C [BIIB021] (max concentration tested 10000 nM)', '%', 81.5),
  ('COc1cc2c(Oc3ccc4[nH]c(C)cc4c3F)ncnc2cc1OCCCN1CCCC1 [Cediranib] (max concentration tested 1000 nM)', '%', 7),
  ('O=C(Cc1ccc(-c2ccc(OCCN3CCOCC3)cc2)cn1)NCc1ccccc1 [KX2-391] (max concentration tested 10000 nM)', '%', 6.08),
  ('Nc1cc(C(F)(F)F)c(-c2cc(N3CCOCC3)nc(N3CCOCC3)n2)cn1 [Buparlisib] (max concentration tested 10000 nM)', '%', 8.14),
  ('CNC(=O)c1ccc(-c2cnc3ncc(Cc4ccc5ncccc5c4)n3n2)cc1F [NVP-INC280] (max concentration tested 1000 nM)', '%', 7.71);

Okay, now this compound:
[in] For the compound Nc1nc(N)c2nc(-c3cccc(O)c3)c(-c3cccc(O)c3)nc2n1 [TG100-115] (max concentration tested 10000 nM) , what percent inhibition of viability is on record?
[out] 5.35

---

System: normal primary NK cells, pool 1 (3 donors) (IL-2 2.5 ng/mL)
Assay: percent inhibition of viability; higher = more inhibition
Settings: 72 h; 10000 nM
RECORDED ENDPOINT: percent inhibition of viability (%)
Numeric only. Scale: %

Use the examples below as a reference point.
INSERT INTO measurements (compound, recorded_endpoint, assay_result) VALUES
  ('Nc1ccccc1NC(=O)c1ccc(CNC(=O)OCc2cccnc2)cc1 [Entinostat] (max concentration tested 10000 nM)', 'percent inhibition of viability', 97.6),
  ('N#Cc1ccc(COC[C@H]2O[C@@H](n3c(NCc4ccc(Cl)c(Cl)c4)nc4c(N)ncnc43)[C@H](O)[C@@H]2O)cc1 (max concentration tested 10000 nM)', 'percent inhibition of viability', 18.5),
  ('O=c1[nH]cc(F)c(=O)[nH]1 [Fluorouracil] (max concentration tested 10000 nM)', 'percent inhibition of viability', 11.4);

Okay, now this compound:
[in] Can you look up percent inhibition of viability on normal primary NK cells, pool 1 (3 donors) (IL-2 2.5 ng/mL) for CC(C)[C@H]1C(=O)N[C@@H](CCCNC(=N)N)C(=O)NCC(=O)N[C@@H](CC(=O)O)C(=O)N[C@H](Cc2ccccc2)C(=O)N1C [Cilengitide] (max concentration tested 10000 nM) ?
[out] -5.41
